- EXPERIMENTAL SYSTEM: integrin αvβ3 (vitronectin receptor purified from the human placenta) (Homo sapiens, UniProt P05106+P06756)
- Construct: a vitronectin receptor (protein content: 118 mg/ml) purified from the human placenta
- Sequence (P06756 31-889 limits assumed): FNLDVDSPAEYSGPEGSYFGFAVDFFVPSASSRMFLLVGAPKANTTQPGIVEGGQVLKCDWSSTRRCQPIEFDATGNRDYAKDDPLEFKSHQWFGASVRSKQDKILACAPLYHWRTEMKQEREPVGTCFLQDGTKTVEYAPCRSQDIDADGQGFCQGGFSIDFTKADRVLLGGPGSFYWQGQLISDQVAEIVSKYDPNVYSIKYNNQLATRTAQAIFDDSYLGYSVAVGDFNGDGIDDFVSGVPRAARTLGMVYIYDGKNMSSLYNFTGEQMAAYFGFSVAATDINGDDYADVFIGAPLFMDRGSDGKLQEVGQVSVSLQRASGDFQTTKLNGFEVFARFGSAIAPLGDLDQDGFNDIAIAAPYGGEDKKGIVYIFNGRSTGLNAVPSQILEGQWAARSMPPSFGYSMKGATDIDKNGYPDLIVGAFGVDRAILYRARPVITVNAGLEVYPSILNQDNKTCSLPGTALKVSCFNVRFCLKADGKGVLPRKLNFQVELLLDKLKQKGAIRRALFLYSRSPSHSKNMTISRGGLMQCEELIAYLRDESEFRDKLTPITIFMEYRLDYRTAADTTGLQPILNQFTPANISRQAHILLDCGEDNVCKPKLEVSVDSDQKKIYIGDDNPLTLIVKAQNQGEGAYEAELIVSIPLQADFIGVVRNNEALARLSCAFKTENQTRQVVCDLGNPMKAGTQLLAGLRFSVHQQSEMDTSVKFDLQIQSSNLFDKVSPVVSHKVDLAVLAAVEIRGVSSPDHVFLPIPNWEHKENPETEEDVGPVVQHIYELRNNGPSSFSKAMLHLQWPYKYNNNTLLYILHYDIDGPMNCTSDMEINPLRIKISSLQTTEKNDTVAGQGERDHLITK
- Sequence (P06756 891-1048 limits assumed): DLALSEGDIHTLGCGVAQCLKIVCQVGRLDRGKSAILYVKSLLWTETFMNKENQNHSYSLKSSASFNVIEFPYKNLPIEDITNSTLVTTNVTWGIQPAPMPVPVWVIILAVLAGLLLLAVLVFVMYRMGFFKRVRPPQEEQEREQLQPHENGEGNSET
- Sequence (P05106 27-788): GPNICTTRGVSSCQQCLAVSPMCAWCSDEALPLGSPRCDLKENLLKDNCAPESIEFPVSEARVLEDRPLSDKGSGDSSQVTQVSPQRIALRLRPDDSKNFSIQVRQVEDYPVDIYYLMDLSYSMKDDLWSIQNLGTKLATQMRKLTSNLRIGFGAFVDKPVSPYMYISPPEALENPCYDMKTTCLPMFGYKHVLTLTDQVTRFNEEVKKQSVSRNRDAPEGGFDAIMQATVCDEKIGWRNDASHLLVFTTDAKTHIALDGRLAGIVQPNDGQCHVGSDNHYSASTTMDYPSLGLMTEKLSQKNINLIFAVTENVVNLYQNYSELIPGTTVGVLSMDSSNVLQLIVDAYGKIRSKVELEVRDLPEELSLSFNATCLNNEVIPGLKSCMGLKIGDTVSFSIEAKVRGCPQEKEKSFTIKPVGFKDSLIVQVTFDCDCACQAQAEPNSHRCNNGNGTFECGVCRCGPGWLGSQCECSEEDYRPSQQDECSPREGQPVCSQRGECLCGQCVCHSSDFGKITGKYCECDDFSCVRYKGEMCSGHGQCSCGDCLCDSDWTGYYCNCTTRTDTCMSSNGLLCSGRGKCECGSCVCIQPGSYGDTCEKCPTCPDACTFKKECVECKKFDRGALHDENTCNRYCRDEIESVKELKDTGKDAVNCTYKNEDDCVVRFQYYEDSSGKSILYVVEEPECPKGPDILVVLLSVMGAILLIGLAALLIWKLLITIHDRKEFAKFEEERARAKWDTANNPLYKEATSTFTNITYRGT
- EXPERIMENT SUMMARY: αvβ3 binding assay (vitronectin-vitronectin receptor binding assay)
- CONDITION DESCRIPTION: vitronectin binding to vitronectin receptor purified from human placenta; read-out: integrin αvβ3 antagonistic activity (IC50)
# IC50 listing for each entry below
Expressed in nM, but write only the number.

| STRUCTURE SMILES | IC50 [nM] |
| --- | --- |
| O=C(NC[C@H](O)C(=O)O)c1ccc(N2CCC(NC3=NCCCN3)CC2)c(F)c1 | 2.8 |

Now, please, on to the next compound.
// IC50 lookup, compound = O=C(NC[C@H](O)C(=O)O)c1ccc(N2CCC(NC3=NCCCN3)CC2)cc1 , result: 23
